Hello, the source for this data is ChEMBL document CHEMBL2086317, in case you need it.

Biological target: G-protein coupled receptor 35 (Homo sapiens, UniProt Q9HC97)
Sequence (Q9HC97 whole entry, the tested form may be a part): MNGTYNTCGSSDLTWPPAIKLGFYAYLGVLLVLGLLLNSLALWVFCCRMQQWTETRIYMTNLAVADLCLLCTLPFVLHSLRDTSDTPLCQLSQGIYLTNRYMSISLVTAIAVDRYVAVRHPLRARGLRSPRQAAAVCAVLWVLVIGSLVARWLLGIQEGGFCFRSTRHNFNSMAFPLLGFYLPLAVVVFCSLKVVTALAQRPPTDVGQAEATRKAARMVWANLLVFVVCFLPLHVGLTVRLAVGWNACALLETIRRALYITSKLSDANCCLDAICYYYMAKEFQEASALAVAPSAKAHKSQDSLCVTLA
Experiment: Agonist activity at GPR35 in human HT-29 cells measured after 10 mins by dynamic mass redistribution assay
Assay type: functional, cell-based
Details: read-out: EC50
As shown below, each of these compounds has a reported log10(EC50) value.
Note the log scale: values are log10 of EC50 expressed in µM.

QUERY: Fill in: log10(EC50) of `O=C(O)c1[nH]c2cc(O)c(O)cc2c1Br` is ___
RESULT: 0.61

QUERY: Fill in: log10(EC50) of `O=C(O)c1cc2cc(O)c(O)cc2n1Cc1ccccc1` is ___
RESULT: 1.64

QUERY: Fill in: log10(EC50) of `O=C(O)c1cc2cc(O)c(O)cc2[nH]1` is ___
RESULT: 1.37

QUERY: Fill in: log10(EC50) of `Cn1c(C(=O)O)cc2cc(O)c(O)cc21` is ___
RESULT: 1.81

QUERY: Fill in: log10(EC50) of `O=C(O)c1[nH]c2cc(O)c(O)cc2c1-c1ccsc1` is ___
RESULT: 1.01

QUERY: Fill in: log10(EC50) of `O=C(O)c1[nH]c2cc(O)c(O)cc2c1-c1cc(F)cc(F)c1` is ___
RESULT: 0.64

----------
Target: G-protein coupled receptor 35 (Homo sapiens, UniProt Q9HC97)
Assay: Agonist activity at human GPR35 expressed in U2OS cells coexpressing Gal4-VP16/beta-arrestin fusion protein after 5 hrs by tango beta-arrestin translocation reporter gene assay
Type: functional, cell-based
Conditions: read-out: EC50
quantity kind: EC50 (µM)
A number alone suffices; assume µM.

The following molecules have reported results that may help.
Cc1c(C(=O)O)sc2cc(O)c(O)cc12 : 90.6
O=C(O)c1[nH]c2cc(O)c(O)cc2c1Br : 166
O=C(O)c1[nH]c2cc(O)c(O)cc2c1-c1cc(F)cc(F)c1 : 109
O=C(O)c1[nH]c2cc(O)c(O)cc2c1-c1ccsc1 : 61.2
CCn1c(C(=O)O)cc2cc(O)c(O)cc21 : 45.7

QUERY: Fill in: EC50 of `Cn1c(C(=O)O)cc2cc(O)c(O)cc21` is ___
RESULT: 45.4

QUERY: Fill in: EC50 of `O=C(O)c1[nH]c2cc(O)c(O)cc2c1-c1ccc(Cl)cc1` is ___
RESULT: 387

----------
Target: UniProtKB Q9HC97
Assay: Agonist activity at human GPR35 expressed in U2OS cells coexpressing Gal4-VP16/beta-arrestin fusion protein after 5 hrs by tango beta-arrestin translocation reporter gene assay relative to zaprinast
Assay type: functional, cell-based
quantity kind: Efficacy (%)
A number alone suffices; assume %.

The following compounds have reported results that may help.
Cc1c(C(=O)O)sc2cc(Br)c(O)c(Br)c12 : 94
O=C(O)c1[nH]c2cc(O)c(O)cc2c1Br : 48
Cc1c(C(=O)O)sc2cc(O)c(O)cc12 : 109
O=C(O)c1[nH]c2cc(O)c(O)cc2c1-c1ccc(Cl)cc1 : 89
O=C(O)c1cc2cc(O)c(O)cc2[nH]1 : 75

QUERY: Fill in: Efficacy of `O=C(O)c1ccc(-c2c(C(=O)O)[nH]c3cc(O)c(O)cc23)cc1` is ___
RESULT: 40

QUERY: Fill in: Efficacy of `CCn1c(C(=O)O)cc2cc(O)c(O)cc21` is ___
RESULT: 52

----------
Molecular target: G-protein coupled receptor 35 (Homo sapiens)
Experiment: Agonist activity at GPR35 in human HT-29 cells measured after 10 mins by dynamic mass redistribution assay
Format: functional, cell-based
Settings: read-out: EC50
quantity kind: log10 of EC50 (log10 of the value in µM)
Note the log scale: values are log10 of EC50 expressed in µM.

The following compounds have reported results that may help.
O=C(O)c1[nH]c2cc(O)c(O)cc2c1-c1ccccc1 : 1.31
CCn1c(C(=O)O)cc2cc(O)c(O)cc21 : 1.89
O=C(Cn1c(C(=O)O)cc2cc(O)c(O)cc21)c1ccccc1 : 1.64

QUERY: Fill in: log10 of EC50 of `O=C(O)c1[nH]c2cc(O)c(O)cc2c1-c1cccc(Cl)c1` is ___
RESULT: 0.39

QUERY: Fill in: log10 of EC50 of `O=C(O)c1[nH]c2cc(O)c(O)cc2c1-c1cccnc1` is ___
RESULT: 1.92

QUERY: Fill in: log10 of EC50 of `O=C(O)c1cc2cc(O)c(O)cc2s1` is ___
RESULT: 0.87

QUERY: Fill in: log10 of EC50 of `Cc1c(C(=O)O)sc2cc(O)c(O)cc12` is ___
RESULT: 0.79

QUERY: Fill in: log10 of EC50 of `O=C(O)c1cccc(-c2c(C(=O)O)[nH]c3cc(O)c(O)cc23)c1` is ___
RESULT: 1.40

QUERY: Fill in: log10 of EC50 of `O=C(O)c1[nH]c2cc(O)c(O)cc2c1-c1cc(Cl)cc(Cl)c1` is ___
RESULT: 0.03

QUERY: Fill in: log10 of EC50 of `O=C(O)c1[nH]c2cc(O)c(O)cc2c1-c1ccc(C(F)(F)F)cc1` is ___
RESULT: 1.11

QUERY: Fill in: log10 of EC50 of `O=C(O)c1ccc(-c2c(C(=O)O)[nH]c3cc(O)c(O)cc23)cc1` is ___
RESULT: 1.35

QUERY: Fill in: log10 of EC50 of `Cc1c(C(=O)O)sc2cc(Br)c(O)c(Br)c12` is ___
RESULT: -0.80

QUERY: Fill in: log10 of EC50 of `O=C(O)c1[nH]c2cc(O)c(O)cc2c1-c1ccc(Cl)cc1` is ___
RESULT: 0.40

QUERY: Fill in: log10 of EC50 of `Cc1ccc(Cn2c(C(=O)O)cc3cc(O)c(O)cc32)cc1` is ___
RESULT: 1.24

QUERY: Fill in: log10 of EC50 of `Cc1c(C(=O)O)oc2cc(O)c(O)cc12` is ___
RESULT: 1.21

QUERY: Fill in: log10 of EC50 of `Cc1ccc(C(=O)Cn2c(C(=O)O)cc3cc(O)c(O)cc32)cc1` is ___
RESULT: 1.60

----------
Biological target: UniProt Q9HC97
Assay: Agonist activity at human GPR35 expressed in U2OS cells coexpressing Gal4-VP16/beta-arrestin fusion protein after 5 hrs by tango beta-arrestin translocation reporter gene assay
Type: functional, cell-based
Conditions: read-out: EC50
quantity kind: pEC50
Note on pEC50: it is the negative log10 of concentration, concentration in mol/L.

The following molecules have reported results that may help.
Cc1c(C(=O)O)sc2cc(Br)c(O)c(Br)c12 : 4.33
Cc1c(C(=O)O)oc2cc(O)c(O)cc12 : 3.88
O=C(O)c1[nH]c2cc(O)c(O)cc2c1-c1cc(Cl)cc(Cl)c1 : 4.62
O=C(O)c1cc2cc(O)c(O)cc2s1 : 3.28
O=C(O)c1cccc(-c2c(C(=O)O)[nH]c3cc(O)c(O)cc23)c1 : 4.12

QUERY: Fill in: pEC50 of `O=C(O)c1ccc(-c2c(C(=O)O)[nH]c3cc(O)c(O)cc23)cc1` is ___
RESULT: 4.97

QUERY: Fill in: pEC50 of `O=C(O)c1[nH]c2cc(O)c(O)cc2c1-c1cccc(Cl)c1` is ___
RESULT: 4.46

QUERY: Fill in: pEC50 of `O=C(O)c1cc2cc(O)c(O)cc2[nH]1` is ___
RESULT: 4.63

----------
Target: G-protein coupled receptor 35 (Homo sapiens)
Experiment: Agonist activity at human GPR35 expressed in U2OS cells coexpressing Gal4-VP16/beta-arrestin fusion protein after 5 hrs by tango beta-arrestin translocation reporter gene assay relative to zaprinast
Assay type: functional, cell-based
quantity kind: Efficacy (%)
A number alone suffices; assume %.

The following compounds have reported results that may help.
O=C(O)c1[nH]c2cc(O)c(O)cc2c1-c1cc(Cl)cc(Cl)c1 : 25
Cn1c(C(=O)O)cc2cc(O)c(O)cc21 : 85
O=C(O)c1[nH]c2cc(O)c(O)cc2c1-c1cccc(Cl)c1 : 19

QUERY: Fill in: Efficacy of `O=C(O)c1cccc(-c2c(C(=O)O)[nH]c3cc(O)c(O)cc23)c1` is ___
RESULT: 17
